FYI, the data here is from patent US7772228B2.

# method notes: Clinical trial 005, rifalazil concentration in plasma of tuberculosis patients
# Type: in vivo, human
# experimental conditions: human, plasma, INH + 25 mg KRM; Hour 2; read-out: Rifalazil Concentration in Plasma, Min

| molecule | concentration at 2 h |
| --- | --- |
| CO[C@H]1/C=C/O[C@@]2(C)Oc3c(C)c(O)c4c(=O)c(c5oc6cc(N7CCN(CC(C)C)CC7)cc(O)c6nc-5c4c3C2=O)NC(=O)/C(C)=C\C=C\[C@H](C)[C@H](O)[C@@H](C)[C@@H](O)[C@@H](C)[C@H](OC(C)=O)[C@@H]1C [Rifalazil] | 2.3 ng/mL |

---

# method notes: clinical
# experimental conditions: human, in vivo, 25 mg, apparent terminal half-life, range
# Description: Attempts were made to analyze the multiple-dose pharmacokinetics using a linear 3-compartment model, and a 3-compartment model incorporating enzyme induction. However, neither multi-compartmental model accurately characterized the pharmacokinetic parameters in all subjects. Daily dosing and related early terminations due to adverse reactions, differences in bioavailability from a food effect, and nonconnective dose administration further complicated these analyses. […]

| sample smiles | half-life |
| --- | --- |
| CO[C@H]1/C=C/O[C@@]2(C)Oc3c(C)c(O)c4c(=O)c(c5oc6cc(N7CCN(CC(C)C)CC7)cc(O)c6nc-5c4c3C2=O)NC(=O)/C(C)=C\C=C\[C@H](C)[C@H](O)[C@@H](C)[C@@H](O)[C@@H](C)[C@H](OC(C)=O)[C@@H]1C | 29.5 to 107 h |

---

# method notes: Clinical trial 005, rifalazil concentration in plasma of tuberculosis patients
# Format: in vivo, human
# experimental conditions: human, plasma, 25 mg, INH + 25 mg KRM; Day 11; read-out: Rifalazil Concentration in Plasma, Max

| sample smiles | concentration at 11 day (ng/mL) |
| --- | --- |
| CO[C@H]1/C=C/O[C@@]2(C)Oc3c(C)c(O)c4c(=O)c(c5oc6cc(N7CCN(CC(C)C)CC7)cc(O)c6nc-5c4c3C2=O)NC(=O)/C(C)=C\C=C\[C@H](C)[C@H](O)[C@@H](C)[C@@H](O)[C@@H](C)[C@H](OC(C)=O)[C@@H]1C | 9.1 |

---

# method notes: clinical
# experimental conditions: human, in vivo, Half-life distribution t½ (mean)
recorded metric: half-life (h)

| sample smiles | numeric readout |
| --- | --- |
| CO[C@H]1/C=C/O[C@@]2(C)Oc3c(C)c(O)c4c(=O)c(c5oc6cc(N7CCN(CC(C)C)CC7)cc(O)c6nc-5c4c3C2=O)NC(=O)/C(C)=C\C=C\[C@H](C)[C@H](O)[C@@H](C)[C@@H](O)[C@@H](C)[C@H](OC(C)=O)[C@@H]1C | 10.5 |

---

# method notes: Clinical trial 005, rifalazil concentration in plasma of tuberculosis patients
# Assay type: in vivo, human
# experimental conditions: human, plasma, INH + 10 mg KRM; Hour 2; read-out: Rifalazil Concentration in Plasma, Mean

| molecule | concentration at 2 h / ng/mL |
| --- | --- |
| CO[C@H]1/C=C/O[C@@]2(C)Oc3c(C)c(O)c4c(=O)c(c5oc6cc(N7CCN(CC(C)C)CC7)cc(O)c6nc-5c4c3C2=O)NC(=O)/C(C)=C\C=C\[C@H](C)[C@H](O)[C@@H](C)[C@@H](O)[C@@H](C)[C@H](OC(C)=O)[C@@H]1C [Rifalazil] | 9.7 |
